- target.system: T1, recombinant HMG1 produced in E. coli as calmodulin binding protein (CBP) fusion (human)
- T1 chain: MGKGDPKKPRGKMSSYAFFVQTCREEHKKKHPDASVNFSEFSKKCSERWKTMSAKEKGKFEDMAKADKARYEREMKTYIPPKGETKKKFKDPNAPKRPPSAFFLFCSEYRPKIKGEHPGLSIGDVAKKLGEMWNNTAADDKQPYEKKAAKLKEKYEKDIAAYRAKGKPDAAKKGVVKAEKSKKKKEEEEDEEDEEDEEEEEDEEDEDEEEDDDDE
- method.notes: cell-based or functional assay
reported.property: IC50, inhibition of rHMG1 stimulated IL-6 release from human PBMCs (nM)
Write it as a number; the unit nM goes unstated.

Sample records with IC50, inhibition of rHMG1 stimulated IL-6 release from human PBMCs:
[[record]]
binder = "anti-HMG1 antibody E11 (antibody, V domains shown) VH: EVQLLESGGGLVQPGGSLRLSCAASGFTFSRYQMNWVRQAPGKGLEWVSSISPSGGHTHYADSVKGRFTISRDNSKNTLYLQMNSLRAEDTAVYYCAKDGRQGKISTVDHWGQGTLVTVSS VL: DIQMTQSPGTLSLSPGERATLSCRASQSVRSNFLAWYQQKPGQAPRLLIYGASRRASGIPDRFSGSGFGADFTLSISRLEPEDFAVYYCQQYGSSPNTFGQGSRVEIK"
recorded_result = 1.22

[[record]]
binder = "anti-HMG1 antibody G16 (antibody, V domains shown) VH: EVQLLESGGGLVQPGGSLRLSCAASGFTFSWYKMTWVRQAPGKGLEWVSSISPSGGFTSYADSVKGRFTISRDNSKNTLYLQMNSLRAEDTAVYYCARDLDIRHAFDIWGQGTMVTVSS VL: DIQMTQSPGTLSLSPGESGTLSCRASESVSSRHFAWYQQKPGQAPRLLIYGASSRPTGIPDRFSGSGSGTDFTLTLSRLEPEDFAVYFCQYYGSSPYTFGGGTKVEMK"
recorded_result = 1.06

[[record]]
binder = "anti-HMG1 antibody G2 (antibody, V domains shown) VH: EVQLLESGGGLVQPGGSLRLSCAASGFTFSWYKMQWVRQAPGKGLEWVSGISPSGGSTAYADSVKGRFTISRDNSKNTLYLQMNSLRAEDTAVYYCAKMGLFNTGNSYVDYWGQGTLVTVSS VL: AQSELTQPPSVSEAPGQRVTISCSGSTSNIGNNAVIWYQQLPGKAPKLLIYYDDLLPSGVSDRFSGSKSGTSGSLAISGLQSEDEADYYCASWDDNLNGPLFGGGTKLTVL"
recorded_result = 0.994

[[record]]
binder = "anti-HMG1 antibody S12 (antibody, V domains shown) VH: EVQLLESGGGLVQPGGSLRLSCAASGFTFSKYIMHWVRQAPGKGLEWVSGIVPSGGLTEYADSVKGRFTISRDNSKNTLYLQMNSLRAEDTATYYCAKEIFGQFDYWGQGTLVTVSS VL: AQSALTQPPSVSAAPRQRVTISCSGSTSNIGNNAVTWYQYFPGKAPKLLIYSDNQRPSGVPDRFSGSKSGTSASLAITGLQAEDEADYYCQSYDRGLSVVFGGGTKLTVL"
recorded_result = 1.67


Below: the item to evaluate.
Indicate the recorded IC50, inhibition of rHMG1 stimulated IL-6 release from human PBMCs value for this binder: anti-HMG1 antibody G4 (antibody, V domains shown, also called ATCC PTA-6258) VH: EVQLLESGGGLVQPGGSLRLSCAASGFTFSWYDMTWVRQAPGKGLEWVSSISPSGGYTKYADSVKGRFTISRDNSKNTLYLQMNSLRAEDTAVYYCTTEFYDYLDVWGKGTTVTVSS VL: DIQMTQSPGTLSLSPGEGATLSCRASQSVSSTYLAWYQQKPGQAPRLLIYEASKRATGTPARFSGSGSGTDFTLSISSLEPEDFAVYYCQHRHNWPPQWTFGQGTKVEVK
0.9
